# Subject Of Test: USP1-UAF1 (Homo sapiens)
# Sequence (O94782 whole entry): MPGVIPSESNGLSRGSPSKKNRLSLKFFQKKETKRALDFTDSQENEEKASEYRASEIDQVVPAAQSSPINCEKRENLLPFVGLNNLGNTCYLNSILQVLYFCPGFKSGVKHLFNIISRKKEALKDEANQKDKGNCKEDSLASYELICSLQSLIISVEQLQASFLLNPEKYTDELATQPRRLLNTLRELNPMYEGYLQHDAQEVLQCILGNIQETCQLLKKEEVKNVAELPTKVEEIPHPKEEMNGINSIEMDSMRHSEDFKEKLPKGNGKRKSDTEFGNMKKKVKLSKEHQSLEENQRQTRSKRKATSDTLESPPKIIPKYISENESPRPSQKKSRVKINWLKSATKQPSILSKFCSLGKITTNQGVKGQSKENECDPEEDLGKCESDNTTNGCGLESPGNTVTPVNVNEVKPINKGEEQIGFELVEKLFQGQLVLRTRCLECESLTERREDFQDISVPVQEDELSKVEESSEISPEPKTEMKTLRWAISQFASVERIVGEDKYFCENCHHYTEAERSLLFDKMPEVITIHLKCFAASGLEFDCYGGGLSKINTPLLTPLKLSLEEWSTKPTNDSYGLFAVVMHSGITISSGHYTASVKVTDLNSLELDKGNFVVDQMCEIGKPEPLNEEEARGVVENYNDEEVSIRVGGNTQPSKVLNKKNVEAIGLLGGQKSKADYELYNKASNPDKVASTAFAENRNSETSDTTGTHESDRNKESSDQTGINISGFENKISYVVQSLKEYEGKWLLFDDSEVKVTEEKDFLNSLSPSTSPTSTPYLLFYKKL
# Sequence (Q8TAF3 whole entry partner): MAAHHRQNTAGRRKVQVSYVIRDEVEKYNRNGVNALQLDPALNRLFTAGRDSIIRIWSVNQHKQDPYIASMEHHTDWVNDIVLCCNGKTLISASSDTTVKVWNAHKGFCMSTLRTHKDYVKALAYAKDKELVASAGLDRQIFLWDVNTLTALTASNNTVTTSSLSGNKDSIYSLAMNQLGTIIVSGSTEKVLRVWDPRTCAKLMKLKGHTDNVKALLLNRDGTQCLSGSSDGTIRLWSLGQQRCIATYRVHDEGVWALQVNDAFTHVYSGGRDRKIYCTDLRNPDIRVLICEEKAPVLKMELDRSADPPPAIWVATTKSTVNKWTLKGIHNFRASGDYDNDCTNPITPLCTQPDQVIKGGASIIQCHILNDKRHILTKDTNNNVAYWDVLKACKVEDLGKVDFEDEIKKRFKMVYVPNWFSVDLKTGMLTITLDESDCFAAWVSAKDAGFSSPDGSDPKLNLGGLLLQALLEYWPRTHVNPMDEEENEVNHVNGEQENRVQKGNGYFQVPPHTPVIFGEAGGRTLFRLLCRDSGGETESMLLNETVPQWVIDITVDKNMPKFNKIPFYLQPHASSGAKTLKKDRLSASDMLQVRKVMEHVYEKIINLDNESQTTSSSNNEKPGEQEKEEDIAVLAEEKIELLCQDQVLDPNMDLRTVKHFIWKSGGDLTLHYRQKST
Quantity: IC50

molecule="COc1nccc(C#N)c1-c1ncc2c(n1)n(Cc1ccc(-c3nc(C(F)(F)F)cn3C)cc1)c(=N)n2C [Example T-008]" experimental_value="30 to 100 nM"

For each of the items listed, what is its IC50?
1. Cc1nc(-c2ccccc2C(C)C)nc2c1n(C)c(=N)n2Cc1ccc(-c2nc(Cl)cn2C)cc1 [Example A-38]
2. COc1ncccc1-c1ncc2c(n1)n(Cc1ccc(-c3nc(C(F)(F)F)cn3C(C)C)cc1)c(=N)n2C [Example T-037]
3. Cn1cc(C(F)(F)F)nc1-c1ccc(Cn2c(=N)n(C)c3cnc(-c4cccnc4CC(F)(F)F)nc32)cc1 [Example T-042]
4. CCOc1cc(C(F)(F)F)nn1-c1ccc(Cn2c(=N)n(C)c3cnc(-c4ccccc4C(C)C)nc32)cc1 [Example T-032]

1. < 30 nM
2. 100 to 10000 nM
3. 100 to 10000 nM
4. < 30 nM

For each of the items listed, what is its IC50?
1. CCOc1ncnc(C2CC2)c1-c1ncc2c(n1)n(Cc1ccc(-c3nc(C(F)(F)F)cn3C)cc1)c(=N)n2CC(F)(F)F [Example T-119]
2. CC(C)c1ccccc1-c1ncc2c(n1)n(C[C@H]1CC[C@H](c3nc(C(F)(F)F)cn3C)CC1)c(=N)n2C [Example T-030]

["100 to 10000 nM", "100 to 10000 nM"]

Data credit: patent US20240059689A1
